EXPERIMENTAL CONTEXT: buffer; pH 7.4; 6.0 h; 150.0 µM
QUANTITY NAME: solubility kinetic

Example cases with answers are listed next.
STRUCTURE STRING: C#C[C@]1(OC(C)=O)CC[C@H]2[C@@H]3CCC4=C/C(=N/O)CC[C@@H]4[C@H]3CC[C@@]21CC
solubility kinetic: < 1 µg/mL
--
STRUCTURE STRING: O=[N+]([O-])c1cccnc1N/N=C/c1ccccc1O
solubility kinetic: < 1 µg/mL
--
STRUCTURE STRING: Nc1nc(N)c2c(OCC3CCN(Cc4ccccc4F)CC3)cccc2n1
solubility kinetic: > 56 µg/mL
--
STRUCTURE STRING: CCc1cccc(NC(=O)c2c(C)oc3nc(C)nc(N4CCCC4)c23)c1
solubility kinetic: 14.8 µg/mL

Ask | // returns reported solubility kinetic for input CCOc1ccc(CCNC(=O)c2cc3cccnc3n2Cc2cccc(C)c2)cc1OCC
Reply | < 1 µg/mL

Ask | // returns reported solubility kinetic for input Cc1ccc(S(=O)(=O)Nc2cnccc2C(=O)Nc2nc(-c3cccnc3)cs2)cc1
Reply | > 67 µg/mL

Ask | // returns reported solubility kinetic for input CC(=O)c1c(C)[nH]c(C(=O)Nc2cccc(S(=O)(=O)N3CCCCC3)c2)c1C
Reply | 4.57 µg/mL

Ask | // returns reported solubility kinetic for input Cc1ccc(Nc2nc(-c3ccncc3)nc3ccccc23)cc1F
Reply | < 1 µg/mL

Ask | // returns reported solubility kinetic for input CCOc1ccccc1N(CC(=O)N1CCOCC1)S(=O)(=O)c1ccc(SC)cc1
Reply | > 67 µg/mL

Ask | // returns reported solubility kinetic for input CCOc1cc(-c2nccc3cc(OC)c(OC)cc23)cc(OCC)c1OCC
Reply | 13.8 µg/mL

Where do the numbers come from? From PubChem BioAssay AID1645848.
